Target: T1, Cynomolgus B7H3 (plate-coated protein, ELISA) (cynomolgus monkey)
T1 chain: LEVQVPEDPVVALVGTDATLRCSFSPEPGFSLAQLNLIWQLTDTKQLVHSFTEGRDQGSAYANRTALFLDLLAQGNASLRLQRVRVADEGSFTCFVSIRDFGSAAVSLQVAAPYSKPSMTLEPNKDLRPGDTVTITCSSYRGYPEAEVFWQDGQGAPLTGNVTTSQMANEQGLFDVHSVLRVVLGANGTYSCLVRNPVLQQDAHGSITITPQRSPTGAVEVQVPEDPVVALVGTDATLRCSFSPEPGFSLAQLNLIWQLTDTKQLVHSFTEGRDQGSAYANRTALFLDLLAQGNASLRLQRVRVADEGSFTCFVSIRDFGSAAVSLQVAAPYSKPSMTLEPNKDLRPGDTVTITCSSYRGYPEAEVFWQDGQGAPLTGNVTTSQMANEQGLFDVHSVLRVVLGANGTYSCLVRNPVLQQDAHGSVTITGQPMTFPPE
Assay: ELISA, antigen coated on plate, anti-human IgG-HRP
// reported pEC50 for each item listed
Entry type: numeric. Quantity: pEC50, the -log10 of concentration in molar units.

Take a look at these entries with their results.
BINDER: #23-5424 (VH5-4-VL2-4) (antibody, IgG1, V domains shown, Humanized antibody from murine #23; also called #23-VH5-4/VL2-4) VH: QVQLVQSGAEVKKPGESLKISCKASGYNFNNYWMHWVRQRPGKGLEWIGMIHPNSGTFNYNERFKRKATLTVDKSISTAYLQWSSLKAEDTAMYYCAKSTALATDYWGQGTLVTVSS VL: QIVLTQSPSTLSASVGDRVTMTCSASSSVSYMYWYQQKPGKAPKLLIYDTSNLASGVPIRFSGSGSGTSYTLTISSMQPDDFVTYYCQQWSSYPLTFGQGTKLEIK
MEASURED NUMBER: 10.19
--
BINDER: #27-2121 (VH2-1-VL2-1) (antibody, IgG1, V domains shown, Humanized antibody from murine #27; also called #27-VH2-1/VL2-1) VH: QVQLVQSGAEVVKPGASVKVSCKASGYTFTNYWMHWVRQAPGQGLEWMGMIHPNSGAFNYNERFKTRVTITVDKSTSTAYMELSSLRSEDTAVYYCARSTALATGYWGQGTLVTVSS VL: DIQLTQSPSFLSASVGDRVTITCSASSSVSYMYWYQQKPGKSPKLLIYDTSNLASGVPSRFSGSGSGTEYTLTISSLQPEDFATYYCQQWSSYPLTFGQGTKLEIK
MEASURED NUMBER: 9.31

Task: # pEC50 lookup, item #23-5423 (VH5-4-VL2-3) (antibody, IgG1, V domains shown, Humanized antibody from murine #23) VH: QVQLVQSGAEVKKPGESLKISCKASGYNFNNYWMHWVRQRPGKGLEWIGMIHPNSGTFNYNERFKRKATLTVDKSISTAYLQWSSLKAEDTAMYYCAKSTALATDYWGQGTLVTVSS VL: QIVLTQSPSTLSASVGDRVTITCSASSSVSYMYWYQQKPGKAPKLLIYDTSNLASGVPIRFSGSGSGTSYTLTISSLQPDDFATYYCQQWSSYPLTFGQGTKLEIK
Result: 10.38

Task: For #27-21 (VH2-2-VL2-1) (antibody, V domains shown, Humanized antibody from murine #27; Detected with anti-human IgG and captured through Fc; also called #27-VH2-2/VL2-1) VH: QVQLVQSGAEVVKPGASVKVSCKASGYTFTNYWMHWVKQAPGQGLEWIGMIHPNSGAFNYNERFKTRVTITVDKSTSTAYMELSSLRSEDTAVYYCARSTALATGYWGQGTLLTVSS VL: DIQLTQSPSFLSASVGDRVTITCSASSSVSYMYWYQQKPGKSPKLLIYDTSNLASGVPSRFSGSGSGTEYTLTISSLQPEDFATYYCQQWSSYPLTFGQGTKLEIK , what is its reported pEC50?
Result: 9.16

Task: Param item = #27-22 (VH2-2-VL2-2) (antibody, IgG1, V domains shown, Humanized antibody from murine #27; also called #27-VH2-2/VL2-2) VH: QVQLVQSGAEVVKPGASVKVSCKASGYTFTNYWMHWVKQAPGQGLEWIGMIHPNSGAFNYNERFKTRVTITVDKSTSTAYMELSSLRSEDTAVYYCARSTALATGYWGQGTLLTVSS VL: DIQLTQSPSFLSASVGDRVTMTCSASSSVSYMYWYQQKPGKSPKLLIYDTSNLASGVPSRFSGSGSGTEYTLTISSLQPEDFVTYYCQQWSSYPLTFGQGTKLEIK ; retrieve measured pEC50.
Result: 9.23
